System tested: T1, His-tagged PD-L1 protein (human, UniProt Q9NZQ7 19-238)
T1 construct: also called His-tagged antigen PD-L1 protein; human PD-L1; not shown: His tag
T1 sequence (Q9NZQ7 19-238 limits assumed): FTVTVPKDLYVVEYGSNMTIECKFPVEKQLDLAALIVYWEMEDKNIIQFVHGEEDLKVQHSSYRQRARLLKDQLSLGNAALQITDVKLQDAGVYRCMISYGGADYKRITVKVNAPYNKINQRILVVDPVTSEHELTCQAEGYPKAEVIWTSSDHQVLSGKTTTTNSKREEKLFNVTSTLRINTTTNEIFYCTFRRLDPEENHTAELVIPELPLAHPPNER
Procedure text: SPR, Biacore T200, multi-cycle; Fab captured on chip, His-tagged PD-L1 as analyte
Measurement label: Kd (nM)
Report as a plain number; the unit nM is understood.

Sample records with Kd:
- Binder: "murine-human chimeric Fab (from mAb PDL1#10) (Fab, V domains shown) VH: EVQLQQSGAELVRPGSSVKMSCKTSGYTFTSYSINWVKQRPGQGLEWIAYFYVGNGYTDYNEKFKGKATLTSDTSSSTAYMQLSSLTSEDSAIYFCARGGLPYYFDYWGQGTTLTVSS VL: DIVMTQSHKFMSTSVGDRVSITCKTSQDVNTAVAWYQQKPGHSPKLLFYWASTRHTGVPDRFTGGGSGTDYTLTISSVQAEDLALYYCQQHYNTPLTFGAGTRLELKR"
  Result: 0.29
- Binder: "AS01814 (humanized Fab) (Fab, V domains shown, Purified humanized Fab) VH: QVQLVQSGSELKKPGASVKVSCKASGYTFTSYSINWVRQAPGKGLEWVAYFYVGNGYTDYNEKFKGRVTITADESTSTAYMELSSLRSEDTAVYYCARGGLPYYFDYWGQGTLVTVSS VL: DIQMTQSPSTLSASVGDRVTITCKTSQDVNTAVAWYQQKPGKAPKLLLYWASTRHTGIPARFSGSGSGTEFTLTISSLQSEDFAVYYCQQHYNTPLTFGGGTKLEIK"
  Result: 0.16

Now turn to the next binder.
Give the value of Kd reported for the following: AS01979 (humanized Fab) (Fab, V domains shown, Purified humanized Fab) VH: EVQLVQSGAEVKKPGESLKISCKGSGYSFTSYSINWVRQAPGKGLEWMGYFYVGNGYTDYNEKFKGRVTMTRNTSISTAYMELSSLRSEDTAVYYCARGGLPYYFDYWGQGTLVTVSS VL: DIQMTQSPSSVSASVGDRVTITCKTSQDVNTAVAWYQQKPGQPPKLLIYWASTRHTGVPDRFSGSGSGTDFTLTISSLQAEDVAVYYCQQHYNTPLTFGGGTKLEIK
0.4
